- TARGET DESC: Cellular tumor antigen p53 (Homo sapiens)
- METHOD SUMMARY: kinase inhibitors altering GFP-p53 stability in HPV16-positive cells, imaging, known kinase inhibitor set, EGFP/DsRed ratio (AID 1053116);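 also: cells exposed to compounds for 24 h at 37 °C before reading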
- ASSAY CONDITIONS: stronger effect = higher value; measured here: GFP-p53 positive objects count
RECORDED METRIC: EGFP object count
Lab note: write the figure by itself, no unit.

As a guide, the following entries are already answered.
CC(=O)Nc1cccc(C#Cc2cncnc2Nc2ccc(OCc3cccc(F)c3)c(Cl)c2)n1 ... 6.5
CCOc1nccc2c1nc(-c1nonc1N)n2CC ... 4.5
N#Cc1c(NC(=O)c2ccccc2F)sc2c1CCCC2 ... 0
CCOc1ccccc1CCN=C1NC(=O)C(=Cc2ccc3ncccc3c2)S1 ... 11.5
Cn1cc(C2=C(c3cn(CCN)c4ccccc34)C(=O)NC2=O)c2ccccc21 ... 14.5

Prompt: Please give the measured EGFP object count for this compound: Cc1cccc(C2NNCC2c2ccc3ncccc3n2)n1 (stereo not given)
Completion: 4

Prompt: Please give the measured EGFP object count for this compound: "Cc1ccc(C)c(C2=C(c3cn(C)c4ccccc34)C(=O)NC2=O)c1"
Completion: 33.5

Prompt: Please give the measured EGFP object count for this compound: "O=C(O[C@H]1CN[C@H](C#Cc2cc3ncnc(Nc4ccc(OCc5cccc(F)c5)c(Cl)c4)c3s2)C1)N1CCOCC1"
Completion: 4.5

Prompt: Please give the measured EGFP object count for this compound: "COc1cc(N2CCN(C(C)C)CC2)ccc1Nc1nc(Nc2cccc(F)c2C(=O)O)c2cc[nH]c2n1"
Completion: 4

Prompt: Please give the measured EGFP object count for this compound: "Cn1cc(C2=C(c3cn(CCCCCO)c4ccccc34)C(=O)NC2=O)c2ccccc21"
Completion: 18.5

====

- METHOD SUMMARY: kinase inhibitors against Plasmodium liver-stage infection, cell-based, known kinase inhibitor set, luminescence, hepatoma host viability (AID 624392);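 also: infected cells incubated roughly two days before readout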
- ASSAY CONDITIONS: Plasmodium liver stage in hepatoma cells, luciferase luminescence, concentration not given here; measured here: host liver cell viability
RECORDED METRIC: liver cell % of control (%)
Numbers only; they are read as %.

As a guide, the following entries are already answered.
CCOc1nccc2c1nc(-c1nonc1N)n2CC ... 107
COc1cc(C)c(N(C)C(=O)CN(C)C)cc1Nc1nc(Nc2cccc(F)c2C(N)=O)c2cc[nH]c2n1 ... 71.5
Cn1cc(C2=C(c3cn(CCSC(=N)N)c4ccccc34)C(=O)NC2=O)c2ccccc21 ... 92.2
O=C(NC1NNC2CC(c3ccccc3)CCC21)C1CC1 (stereo not given) ... 191
N#Cc1c(NC(=O)c2cccc3ccccc23)sc2c1CCCN2C(=O)C1CC1 ... 190

Prompt: Please give the measured liver cell % of control for this compound: "Fc1cccc(COc2ccc(Nc3ncncc3C#Cc3ccccc3)cc2Cl)c1"
Completion: 87.3

Prompt: Please give the measured liver cell % of control for this compound: "Nc1c(C(=O)c2cccc(-c3cccnc3)c2)cnn1-c1ccc(F)cc1F"
Completion: 175

Prompt: Please give the measured liver cell % of control for this compound: "COc1ccc(-c2coc3ncnc(N)c23)cc1"
Completion: 92.2

Prompt: Please give the measured liver cell % of control for this compound: Cn1cc(C2=C(c3c4n(c5ccccc35)CCC(CN)CC4)C(=O)NC2=O)c2ccccc21 (stereo not given)
Completion: 127

Prompt: Please give the measured liver cell % of control for this compound: "CCc1ccc(Oc2nccc(-c3c(-c4ccc(F)cc4)ncn3C3CCNCC3)n2)cc1"
Completion: 78.5

====

- METHOD SUMMARY: viability rescue of complex I mutant cybrids, primary screen, cell-based, galactose medium, ATP luminescence (AID 1645843);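 also: positive z means more ATP and so rescue of galactose-driven cybrid death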
- ASSAY CONDITIONS: complex I mutant cybrid cells, 72 h
Calls of active or inactive are those of the source.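 How the source made its calls: active means z-score of at least 1.8 in each of two replicates, scored against plate mean and spread of sample wells; inactive means the rest.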
Your response should consist of one outcome taken from 1.0 (active), 0.0 (inactive)

Would you please look over these solved cases?
Nc1nc2ncc(CNc3ccc(C(=O)N[C@@H](CCC(=O)O)C(=O)O)cc3)nc2c(=O)[nH]1 ... 0.0
CC(=O)[C@H]1CC[C@H]2[C@@H]3C[C@H](C)C4=CC(=O)CC[C@]4(C)[C@H]3[C@@H](O)C[C@]12C ... 0.0

Prompt: Hi, do you know how "Cn1cc(C2=C(c3cn(CCCSC(=N)N)c4ccccc34)C(=O)NC2=O)c2ccccc21" came out in this test?
Completion: 0.0

Prompt: Hi, do you know how "CCOC(=O)[C@H](CCc1ccccc1)N[C@H]1CCc2ccccc2N(CC(=O)O)C1=O" came out in this test?
Completion: 0.0

Prompt: Hi, do you know how "CC(=O)OCC(=O)[C@@]12OC(C)(C)O[C@@H]1C[C@H]1[C@@H]3C[C@H](F)C4=CC(=O)C=C[C@]4(C)[C@@]3(F)[C@@H](O)C[C@@]12C" came out in this test?
Completion: 0.0

Prompt: Hi, do you know how "CCCCC1=NC2(CCCC2)C(=O)N1Cc1ccc(-c2ccccc2-c2nn[nH]n2)cc1" came out in this test?
Completion: 0.0

Prompt: Hi, do you know how CN(C)CCOC(c1ccc(Cl)cc1)c1ccccn1 (centres undefined) came out in this test?
Completion: 0.0

Prompt: Hi, do you know how CC(=O)CC(c1ccccc1)c1c(O)c2ccccc2oc1=O (centres undefined) came out in this test?
Completion: 1.0

Prompt: Hi, do you know how "CCCc1cc(=O)[nH]c(=S)[nH]1" came out in this test?
Completion: 0.0

====

- METHOD SUMMARY: stimulators of nuclear beta-catenin in C2C12, primary screen, imaging, WNT3A-conditioned medium, mouse C2C12, NPC library (AID 1117326)
- ASSAY CONDITIONS: at 10 µM
Calls of active or inactive are those of the source. No stated cut-off is given here; in the data, active means nuclear beta-catenin stimulation mostly above about 4.2% (no sharp cut-off); inactive means mostly below about 10%.
Your response should consist of one outcome taken from 1 for active, -1 for inactive

CC(C)(C)NC[C@H](O)COc1nsnc1N1CCOCC1 ... -1

Prompt: Hi, do you know how "CO/N=C(\C(=O)O)c1csc(NC(=O)CCl)n1" came out in this test?
Completion: -1

Prompt: Hi, do you know how "CCCCCCCCCCCCCC[N+](C)(C)C" came out in this test?
Completion: 1

Prompt: Hi, do you know how "CNc1c2c(nn1C)CCCC2" came out in this test?
Completion: -1

Prompt: Hi, do you know how "C[C@@H]1C[C@H]2[C@@H]3CCC4=CC(=O)C=C[C@]4(C)[C@@]3(F)[C@@H](O)C[C@]2(C)[C@@]1(O)C(=O)CO" came out in this test?
Completion: -1

Prompt: Hi, do you know how "CCCCCOc1ccccc1/C(=C\SC)n1ccnc1" came out in this test?
Completion: -1

Prompt: Hi, do you know how CN[C@H](CC(C)C)C(=O)N[C@H]1C(=O)N[C@@H](CC(N)=O)C(=O)N[C@H]2C(=O)N[C@H]3C(=O)N[C@H](C(=O)N[C@H](C(=O)O)c4cc(O)cc(O)c4-c4cc3ccc4O)[C@H](O)c3ccc(c(Cl)c3)Oc3cc2cc(c3O[C@@H]2OC(CO)[C@@H](O)[C@H](O)[C@@H]2O[C@H]2C[C@](C)(N)[C@H](O)[C@H](C)O2)Oc2ccc(cc2Cl)[C@H]1O (stereo partly drawn) came out in this test?
Completion: -1

Prompt: Hi, do you know how CCCCCC1Nc2cc(C(F)(F)F)c(S(N)(=O)=O)cc2S(=O)(=O)N1 (stereo not drawn) came out in this test?
Completion: -1

Prompt: Hi, do you know how "CCCCCCCCCCC[C@@H](C[C@@H]1OC(=O)[C@H]1CCCCCC)OC(=O)[C@H](CC(C)C)NC=O" came out in this test?
Completion: -1

Prompt: Hi, do you know how "O=C(CCC1CCN(Cc2ccccc2)CC1)c1ccc2c(c1)NCCCC2" came out in this test?
Completion: -1

Prompt: Hi, do you know how "O=C(O)c1ccccn1" came out in this test?
Completion: -1

Prompt: Hi, do you know how "CCOc1ccccc1O[C@H](c1ccccc1)[C@H]1CNCCO1" came out in this test?
Completion: -1

Prompt: Hi, do you know how "O=C(O)c1c(O)c(-c2ccccc2)nc2ccccc12" came out in this test?
Completion: -1

====

- METHOD SUMMARY: CellTiter-Glo luminescent readout of SW480 viability loss, NPC library primary (AID 1117343)
- ASSAY CONDITIONS: CellTiter-Glo luminescence; at 20 µM (top of the series)
The source made the active and inactive calls.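 The calls were made as follows: active = compounds that lower viability of the colon cancer cells in the luminescence readout, with no numeric limit stated; inactive = the rest.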
Your response should consist of one outcome taken from true (1) (active), false (0) (inactive)

CCCCN(CCCC)C(C(N)=O)c1ccc(OC)cc1 (stereo not drawn) ... false (0)
CCc1cc2cc(OC)c(OC)cc2c(Cc2ccccc2)n1 ... false (0)
CC(=O)Oc1ccc(C2(c3ccc(OC(C)=O)cc3)C(=O)Nc3ccccc32)cc1 ... false (0)
CC1=C(C(=O)O)N2C(=O)[C@@H](NC(=O)[C@H](N)c3ccccc3)[C@H]2SC1 ... false (0)

Prompt: Hi, do you know how "Cc1onc(-c2c(Cl)cccc2Cl)c1C(=O)N[C@@H]1C(=O)N2[C@@H]1SC(C)(C)[C@@H]2C(=O)O" came out in this test?
Completion: false (0)

Prompt: Hi, do you know how "NCC[C@H](O)C(=O)N[C@@H]1C[C@H](N)[C@@H](O[C@H]2O[C@H](CN)[C@@H](O)[C@H](O)[C@@H]2O)[C@H](O)[C@@H]1O[C@H]1O[C@H](CO)[C@@H](O)[C@H](N)[C@@H]1O" came out in this test?
Completion: false (0)

Prompt: Hi, do you know how "CC1(C)O[C@@H]2C[C@H]3[C@@H]4CCC5=CC(=O)C=C[C@]5(C)[C@@H]4[C@@H](O)C[C@]3(C)[C@]2(C(=O)CO)O1" came out in this test?
Completion: false (0)

Prompt: Hi, do you know how "CC(=O)SC[C@@H](Cc1ccccc1)C(=O)NCC(=O)OCc1ccccc1" came out in this test?
Completion: true (1)
